Target: human GLP-1 R (Homo sapiens, UniProt P43220)
Sequence (P43220 24-463): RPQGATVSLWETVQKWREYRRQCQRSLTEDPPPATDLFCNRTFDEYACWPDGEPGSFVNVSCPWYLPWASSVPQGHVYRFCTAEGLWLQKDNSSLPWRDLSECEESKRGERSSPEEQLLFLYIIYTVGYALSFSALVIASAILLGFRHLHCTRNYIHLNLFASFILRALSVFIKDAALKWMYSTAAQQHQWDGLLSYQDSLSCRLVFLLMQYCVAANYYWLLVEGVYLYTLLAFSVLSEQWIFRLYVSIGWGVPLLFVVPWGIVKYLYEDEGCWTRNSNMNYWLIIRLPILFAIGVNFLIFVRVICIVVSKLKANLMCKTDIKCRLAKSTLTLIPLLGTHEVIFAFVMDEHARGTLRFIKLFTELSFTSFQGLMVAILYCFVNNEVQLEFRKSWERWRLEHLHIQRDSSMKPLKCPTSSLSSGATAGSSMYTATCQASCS
Test: cAMP signal activation in human GLP1R cells (hGLP1R-U2OS, HTRF)
Experimental: A cell line stably expressing human GLP1 R (hGLP1R-U2OS) was used in this experiment. The cells were cultured in a growth medium (complete medium, DMEM+10% FBS+500 μg/mL G418 (Promega)) in an incubator at 37° C. and has 5% CO2 saturated humidity. […] The ratio of signal emitted by donor to […] in each well was calculated as follows: HTRF rate=signal at 665 nm/signal at 620 nm×104, and then the HTRF rate was converted into a reaction rate (%). […]
measured-parameter: EC50 (nM)
Answers are plain numbers, in nM.

Guide cases for EC50, answers given:
C[C@@H](c1nc2ccc(C(=O)O)nc2n1C[C@@H]1CCO1)N1CCN(c2cccc(OCc3ccc(Cl)cc3F)n2)CC1 [Example 52A]
2
C[C@@H](c1nc2ccc(C(=O)O)cc2n1C[C@@H]1CCO1)N1CCC(c2cccc(OCc3ccc4cnn(CC(F)(F)F)c4c3)n2)CC1 [Example 9]
3.48
C[C@@H](c1nc2ccc(C(=O)O)cc2n1C[C@@H]1CCO1)N1CCN(c2cccc(OCc3ccc(Cl)cc3F)n2)CC1 [Example 39A]
15.5
C[C@@H](c1nc2ccc(C(=O)O)nc2n1C[C@@H]1CCO1)N1CCC(c2cccc(OCc3ccnc4cc(F)ccc34)n2)CC1 [Example 18]
2.66
C[C@@H](c1nc2ccc(C(=O)O)nc2n1C[C@@H]1CCO1)N1CCC(c2cccc(OCc3ccc(C#N)cc3F)n2)CC1 [Example 15]
2.57

We next turn to a different compound, shown below.
Prompt: Consider the compound C[C@@H](c1nc2ccc(C(=O)O)nc2n1C[C@@H]1CCO1)N1CCN(c2cccc(OCc3ccc(C#N)cc3F)n2)CC1 [Example 51A] and give its measured EC50.
Completion: 2.28

###

assay: Pharmacokinetic study on rat; assay type: in vivo, SD rats; conditions: male, Sprague-Dawley (SD), plasma, iv, 1 mg/kg, i.v
measured-parameter: Cmax (ng/mL)
Answers are plain numbers, in ng/mL.

C[C@@H](c1nc2ccc(C(=O)O)cc2n1C[C@@H]1CCO1)N1CCC(c2cccc(OCc3ccc(C#N)cc3F)n2)CC1
2330

Would you mind giving Cmax for every molecule in the list below?
1. C[C@@H](c1nc2ccc(C(=O)O)nc2n1C[C@@H]1CCO1)N1CCN(c2cccc(OCc3ccc(C#N)cc3F)n2)CC1 [Example 51A]
2. C[C@@H](c1nc2ccc(C(=O)O)cc2n1C[C@@H]1CCO1)N1CCC(c2cccc(OCc3ccc(Cl)cc3F)n2)CC1

Completion:
1. 1990
2. 2310

###

test: Pharmacokinetic study on rat; format: in vivo, SD rats; conditions: male, Sprague-Dawley (SD), plasma, iv, 1 mg/kg, i.v
measured-parameter: clearance (mL/min/kg)
One number for each entry, in mL/min/kg.

Guide cases for clearance, answers given:
C[C@@H](c1nc2ccc(C(=O)O)cc2n1C[C@@H]1CCO1)N1CCN(c2cccc(OCc3ccc(C#N)cc3F)n2)CC1 [Example 20A]
30.7
C[C@@H](c1nc2ccc(C(=O)O)nc2n1C[C@@H]1CCO1)N1CCC(c2cccc(OCc3ccc(Cl)cc3F)n2)CC1
9.79
C[C@@H](c1nc2ccc(C(=O)O)nc2n1C[C@@H]1CCO1)N1CCN(c2cccc(OCc3ccc(C#N)cc3F)n2)CC1 [Example 51A]
27.2
C[C@@H](c1nc2ccc(C(=O)O)cc2n1C[C@@H]1CCO1)N1CCC(c2cccc(OCc3ccc(C#N)cc3F)n2)CC1
13.3

We next turn to a different molecule, shown below.
Prompt: Consider the molecule C[C@@H](c1nc2ccc(C(=O)O)nc2n1C[C@@H]1CCO1)N1CCN(c2cccc(OCc3ccc(Cl)cc3F)n2)CC1 [Example 52A] and give its measured clearance.
Completion: 14.7
